# System: Mus musculus
# method: In vivo potency against acute systemic infection in mouse caused by Streptococcus pyogenes C-203 on subcutaneous injection
# Format: functional
# setup conditions: sc, read-out: PD50
ED50: recorded values

{"compound": "C[C@H](N)C(=O)N[C@@H]1CCN(c2c(F)c(N)c3c(=O)c(C(=O)O)cn(C4CC4)c3c2F)C1.Cl.O", "ED50 / mg/kg": 6.3}
{"compound": "Cl.Nc1c(F)c(N2CC[C@H](N)C2)c(F)c2c1c(=O)c(C(=O)O)cn2C1CC1.O", "ED50 / mg/kg": 5.5}
{"compound": "Cl.NC1CCN(c2cc3c(cc2F)c(=O)c(C(=O)O)cn3C2CC2)C1.O (centres undefined)", "ED50 / mg/kg": 11}
{"compound": "NC1CCN(c2nc3c(cc2F)c(=O)c(C(=O)O)cn3-c2ccc(F)cc2F)C1 (centres undefined)", "ED50 / mg/kg": 3}
{"compound": "N[C@H]1CCN(c2nc3c(cc2F)c(=O)c(C(=O)O)cn3C2CC2)C1", "ED50 / mg/kg": 9}
{"compound": "Cl.NCC(=O)NC1CCN(c2c(F)c(N)c3c(=O)c(C(=O)O)cn(C4CC4)c3c2F)C1.O (centres undefined)", "ED50 / mg/kg": 8.1}
{"compound": "Cl.NC1CCN(c2c(F)cc3c(=O)c(C(=O)O)cn(C4CC4)c3c2F)C1 (centres undefined)", "ED50 / mg/kg": 2}
{"compound": "C[C@H](N)C(=O)N[C@@H]1CCN(c2nc3c(cc2F)c(=O)c(C(=O)O)cn3C2CC2)C1.Cl.O", "ED50 / mg/kg": 32}
{"compound": "Cl.Nc1c(F)c(N2CC[C@@H](N)C2)c(F)c2c1c(=O)c(C(=O)O)cn2C1CC1.O", "ED50 / mg/kg": 7.5}
